# target_or_test_system: VEGFR-2 (Homo sapiens, UniProt P35968)
# Construct: purchased Millipore, United Kingdom
# Sequence (P35968 20-1356): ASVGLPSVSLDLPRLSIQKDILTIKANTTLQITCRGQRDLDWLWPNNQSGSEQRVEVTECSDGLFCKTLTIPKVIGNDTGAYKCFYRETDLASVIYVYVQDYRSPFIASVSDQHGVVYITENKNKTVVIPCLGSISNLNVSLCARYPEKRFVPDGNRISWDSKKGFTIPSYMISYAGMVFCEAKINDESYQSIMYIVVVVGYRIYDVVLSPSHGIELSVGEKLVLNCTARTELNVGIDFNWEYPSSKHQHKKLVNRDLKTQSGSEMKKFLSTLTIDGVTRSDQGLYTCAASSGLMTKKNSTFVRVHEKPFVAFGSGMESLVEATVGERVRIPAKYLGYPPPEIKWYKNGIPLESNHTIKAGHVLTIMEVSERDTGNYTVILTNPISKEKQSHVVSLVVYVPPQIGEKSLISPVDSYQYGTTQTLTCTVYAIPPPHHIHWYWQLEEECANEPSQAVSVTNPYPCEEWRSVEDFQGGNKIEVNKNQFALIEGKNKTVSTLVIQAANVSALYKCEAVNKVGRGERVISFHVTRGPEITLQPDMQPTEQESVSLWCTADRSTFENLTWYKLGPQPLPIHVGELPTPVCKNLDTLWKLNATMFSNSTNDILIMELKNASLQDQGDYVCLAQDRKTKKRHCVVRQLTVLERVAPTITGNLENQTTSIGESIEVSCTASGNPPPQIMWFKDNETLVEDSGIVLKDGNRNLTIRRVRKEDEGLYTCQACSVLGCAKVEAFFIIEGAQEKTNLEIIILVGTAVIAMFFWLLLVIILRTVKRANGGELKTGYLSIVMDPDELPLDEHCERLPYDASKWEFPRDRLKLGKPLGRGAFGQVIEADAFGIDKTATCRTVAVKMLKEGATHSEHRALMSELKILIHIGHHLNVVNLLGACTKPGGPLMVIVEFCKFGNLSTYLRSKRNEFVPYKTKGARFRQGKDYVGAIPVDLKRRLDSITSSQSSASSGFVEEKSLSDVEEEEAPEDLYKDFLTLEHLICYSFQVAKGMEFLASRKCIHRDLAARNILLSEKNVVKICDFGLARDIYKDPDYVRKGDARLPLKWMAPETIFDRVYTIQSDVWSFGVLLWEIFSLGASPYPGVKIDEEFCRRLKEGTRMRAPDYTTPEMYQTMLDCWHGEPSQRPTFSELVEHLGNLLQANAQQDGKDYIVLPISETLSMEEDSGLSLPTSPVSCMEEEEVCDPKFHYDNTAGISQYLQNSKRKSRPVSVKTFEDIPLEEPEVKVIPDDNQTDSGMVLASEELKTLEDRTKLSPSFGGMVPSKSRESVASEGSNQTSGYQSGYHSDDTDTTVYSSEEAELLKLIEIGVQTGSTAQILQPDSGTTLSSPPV
# assay_details: VEGFR-2 kinase inhibition assay (Alpha Screen, phosphotyrosine antibody)
# Format: biochemical
# run_conditions: unit given as nm; read-out: VEGFR-2 IC50 (nm)
measure_name: IC50
Your reply should be a number followed by the unit it is expressed in.

# input Requested field: IC50. Item: COc1ccc(Nc2ccc(NC(=O)Nc3ccc(Cl)c(C(F)(F)F)c3)cc2)nn1
# output 1410 nM
